assay: Acute toxicity; details: mouse, in vivo; male ddY mice, single oral dose, observed for 7 days
Where a name gives a salt, the structure may show the parent alone.

{"columns": ["COMPOUND", "LD50 at 168 h"],
 "data": [
  ["O=C(CNc1ccncc1)Nc1ccccc1Nc1ccccc1 [Example 1, hydrochloride]", "≥ 2000 mg/kg"]
]}
